method.description: Cmax in cynomolgus monkey serum at 20 mg/kg, po
Assay type: ADME, organism-based, Macaca fascicularis
Design: dose 20 mg/kg, route oral
readout.kind: Cmax
In your response, put the unit directly after the numeric value.

In one line, give reported Cmax of the entry COc1c(N2CC[C@@H](C3(N)CC3)C2)ccc2c(=O)c(C(=O)O)cn([C@@H]3C[C@@H]3F)c12 .
3700 ng/mL

====

method.description: Aqueous […] of the compound
Type: physicochemical
assay.setup: aqueous (not further specified)
readout.kind: solubility (µg/mL)
One number for each entry, in µg/mL.

Solved cases (3 shown):
In one line, give reported solubility of the entry COc1c(N2CC[C@@H](C3(N)CC3)C2)c(F)cc2c(=O)c(C(=O)O)cn([C@@H]3C[C@@H]3F)c12 .
221

In one line, give reported solubility of the entry CNC1([C@@H]2CCN(c3ccc4c(=O)c(C(=O)O)cn([C@@H]5C[C@@H]5F)c4c3OC)C2)CC1 .
161

In one line, give reported solubility of the entry COc1c(N2CC[C@@H](C3(N)CCC3)C2)c(F)cc2c(=O)c(C(=O)O)cn([C@@H]3C[C@@H]3F)c12 .
180

We next turn to a different molecule, shown below.
In one line, give reported solubility of the entry COc1c(N2CC[C@@H](C3(N)CC3)C2)ccc2c(=O)c(C(=O)O)cn([C@@H]3C[C@@H]3F)c12 .
480
